MEASUREMENT DESCRIPTION: Stability in human plasma
Assay type: in vitro ADME
RUN PARAMETERS: pH 7.8; 2 μM peptidomimetic, pooled human plasma, 37° C.; read-out: half-life (t1/2) when incubated with human plasma
Starred links: 1 amine or outer side, 2 acyl side, 3 side chain; linkers in the order of their positions; H or OH if unused. Non-standard residues stand in square brackets, D forms with d. Residues, ends and D or L forms follow the SMILES beside them. ξ: configuration not given here. ξBip(2'-Et-4'-OMe) = CCc1cc(OC)ccc1-c1ccc(CC(N)C(=O)O)cc1; X1 = O=C(C(CCCc1ccc(C(F)(F)F)cc1F)N[*:1])[*:2]
METRIC: half-life at 2 μM (h)
Give bare numbers, in h.

// worked examples, half-life at 2 μM included
COMPOUND	DATA VALUE
CCc1cc(OC)ccc1-c1ccc(CC(NC(=O)[C@H](CC(=O)O)NC(=O)[C@H](CO)NC(=O)[C@@H](NC(=O)[C@H](Cc2ccccc2)NC(=O)[C@@H](NC(=O)CNC(=O)[C@H](CCC(N)=O)NC(=O)[C@H](CO)NC(=O)[C@@H](N)Cc2c[nH]cn2)[C@@H](C)O)[C@@H](C)O)C(=O)NC(CCCc2ccccc2C(F)(F)F)C(N)=O)cc1 (single isomer, unassigned)	8
CCc1cc(OC)ccc1-c1ccc(CC(NC(=O)[C@H](CC(=O)O)NC(=O)[C@H](CO)NC(=O)[C@@H](NC(=O)[C@H](Cc2ccccc2)NC(=O)[C@@H](NC(=O)CNC(=O)[C@H](CCC(N)=O)NC(=O)[C@H](CO)NC(=O)[C@@H](N)Cc2c[nH]cn2)[C@@H](C)O)[C@@H](C)O)C(=O)NC(CCCc2ccccc2Cl)C(N)=O)cc1 (single isomer, unassigned)	8

For the next question, use this compound.
Item CCc1cc(OC)ccc1-c1ccc(CC(NC(=O)[C@H](CC(=O)O)NC(=O)[C@H](CO)NC(=O)[C@@H](NC(=O)[C@H](Cc2ccccc2)NC(=O)[C@@H](NC(=O)CNC(=O)[C@H](CCC(N)=O)NC(=O)[C@H](CO)NC(=O)[C@@H](N)Cc2c[nH]cn2)[C@@H](C)O)[C@@H](C)O)C(=O)NC(CCCc2ccc(C(F)(F)F)cc2F)C(N)=O)cc1 (some centres unmarked) [compound 49] (H-HSQGTFTSD[ξBip(2'-Et-4'-OMe)][X1]-NH2) has what recorded half-life at 2 μM?
8

###

SYSTEM: Human GLP-1 receptor (Homo sapiens, UniProt P43220)
Construct: The full-length cDNA was cloned in pcDNA3.1(+); expressed in transfected cells
Sequence (P43220 24-463): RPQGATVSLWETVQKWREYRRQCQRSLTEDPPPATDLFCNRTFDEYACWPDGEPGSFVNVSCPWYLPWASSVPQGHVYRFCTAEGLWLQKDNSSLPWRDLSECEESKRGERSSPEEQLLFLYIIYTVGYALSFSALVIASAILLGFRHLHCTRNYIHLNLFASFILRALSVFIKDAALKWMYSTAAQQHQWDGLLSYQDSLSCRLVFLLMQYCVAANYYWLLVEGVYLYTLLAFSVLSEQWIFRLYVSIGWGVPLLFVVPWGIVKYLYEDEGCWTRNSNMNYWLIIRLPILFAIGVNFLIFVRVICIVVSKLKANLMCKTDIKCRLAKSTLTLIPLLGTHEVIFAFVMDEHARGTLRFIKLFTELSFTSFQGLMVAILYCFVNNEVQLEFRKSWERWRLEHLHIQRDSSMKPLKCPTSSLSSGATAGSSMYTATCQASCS
MEASUREMENT DESCRIPTION: In vitro Human GLP-1 R agonist activity (cyclic AMP determination) in CHO/human GLP1R cells
Type: cell-based
RUN PARAMETERS: 10 μM test compound
Procedure: The novel peptidomimetics were screened for Human GLP-1 receptor (HGLP-1 R) agonist activity (in vitro), using the cAMP cell-based assay, in stably transfected CHO/human GLP1R cells. […] The trypsin was inactivated using Ham's F12 medium containing 10% NBCS and the cells were suspended in 2 ml of complete medium. […] Data is calculated as percent of control (Vehicle: water) and expressed as Mean±SD.
METRIC: Human GLP-1 R activity (cAMP release), % activity with respect to control (%)
Answers are plain numbers, in %.

// worked examples, Human GLP-1 R activity (cAMP release), % activity with respect to control included
COMPOUND	DATA VALUE
CCc1cc(OC)ccc1-c1ccc(CC(NC(=O)[C@H](CC(=O)O)NC(=O)[C@H](CO)NC(=O)[C@@H](NC(=O)C(C)(Cc2ccccc2F)NC(=O)[C@@H](NC(=O)CNC(=O)[C@H](CC(C(F)(F)F)C(F)(F)F)NC(=O)C(C)(C)NC(=O)[C@@H](N)Cc2c[nH]cn2)[C@@H](C)O)[C@H](C)O)C(=O)NC(CCCc2ccccc2F)C(N)=O)cc1 (single isomer, unassigned)	99
CCc1cc(OC)ccc1-c1ccc(CC(CNC(CCCc2ccccc2)C(N)=O)NC[C@H](CC(=O)O)NC(=O)[C@H](CO)NC(=O)[C@@H](NC(=O)C(C)(Cc2ccccc2F)NC(=O)[C@@H](NC(=O)CNC(=O)C(CCC#N)NC(=O)C(C)(C)NC(=O)[C@@H](N)Cc2c[nH]cn2)[C@H](C)O)[C@H](C)O)cc1 (single isomer, unassigned)	99
CCc1cc(OC)ccc1-c1ccc(CC(NC(=O)[C@H](CC(=O)O)NC(=O)[C@H](CO)NC(=O)[C@@H](NC(=O)[C@H](Cc2ccccc2)NC(=O)[C@@H](NC(=O)CNC(=O)[C@H](CCC(N)=O)NC(=O)[C@H](CO)NC(=O)[C@@H](N)Cc2c[nH]cn2)[C@@H](C)O)[C@@H](C)O)C(=O)NC(CCCc2ccccc2F)C(N)=O)cc1 (single isomer, unassigned)	99
CCc1cc(OC)ccc1-c1ccc(CC(CNC(CCCc2ccccc2F)C(N)=O)NC[C@H](CC(=O)O)NC(=O)[C@H](CO)NC(=O)[C@@H](NC(=O)C(C)(Cc2ccccc2F)NC(=O)[C@@H](NC(=O)CNC(=O)C(CCC#N)NC(=O)C(C)(C)NC(=O)[C@@H](N)Cc2c[nH]cn2)[C@H](C)O)[C@H](C)O)cc1 (single isomer, unassigned)	99
CCc1cc(OC)ccc1-c1ccc(CC(NC(=O)[C@H](CC(=O)O)NC(=O)[C@H](CO)NC(=O)[C@@H](NC(=O)[C@H](Cc2ccccc2)NC(=O)[C@@H](NC(=O)CNC(=O)C(CCC#N)NC(=O)C(C)(C)NC(=O)[C@@H](N)Cc2c[nH]cn2)[C@@H](C)O)[C@@H](C)O)C(=O)NC(CCCc2ccccc2C(F)(F)F)C(N)=O)cc1 (single isomer, unassigned)	99

For the next question, use this compound.
Item CCc1cc(OC)ccc1-c1ccc(CC(NC(=O)[C@H](CC(=O)O)NC(=O)[C@H](CO)NC(=O)[C@@H](NC(=O)[C@H](Cc2ccccc2)NC(=O)[C@@H](NC(=O)CNC(=O)C(CCC#N)NC(=O)C(C)(C)NC(=O)[C@@H](N)Cc2c[nH]cn2)[C@@H](C)O)[C@@H](C)O)C(=O)NC(CCCc2cc(C)cc(C)c2)C(N)=O)cc1 (single isomer, unassigned) has what recorded Human GLP-1 R activity (cAMP release), % activity with respect to control?
98

###

MEASUREMENT DESCRIPTION: Stability in simulated intestinal fluid
Format: in vitro ADME
RUN PARAMETERS: 2 μM peptidomimetic, simulated intestinal fluid pH 7.5, 37° C.; read-out: half-life (t1/2) when incubated with simulated intestinal fluid
Experimental: Reactions were terminated by the addition of TFA/H2O (15 mL, 10% (v/v)). […] The column was equilibrated with TFA/H20, at a flow rate of 1 mL/min.
METRIC: half-life at 2 μM

MOLECULE	half-life at 2 μM
CCc1cc(OC)ccc1-c1ccc(CC(CNC(CCCc2ccccc2)C(N)=O)NC[C@H](CC(=O)O)NC(=O)[C@H](CO)NC(=O)[C@@H](NC(=O)C(C)(Cc2ccccc2F)NC(=O)[C@@H](NC(=O)CNC(=O)[C@H](CCC(N)=O)NC(=O)C(C)(C)NC(=O)[C@@H](N)Cc2c[nH]cn2)[C@H](C)O)[C@H](C)O)cc1 (single isomer, unassigned) [compound 201]	> 24 h

For the next question, use this molecule.
Item CCc1cc(OC)ccc1-c1ccc(CC(NC(=O)[C@H](CC(=O)O)NC(=O)[C@H](CO)NC(=O)[C@@H](NC(=O)[C@H](Cc2ccccc2)NC(=O)[C@@H](NC(=O)CNC(=O)C(CCC#N)NC(=O)C(C)(C)NC(=O)[C@@H](N)Cc2c[nH]cn2)[C@@H](C)O)[C@@H](C)O)C(=O)NC(CCCc2ccc(C(F)(F)F)cc2F)C(N)=O)cc1 (single isomer, unassigned) [compound 81] has what recorded half-life at 2 μM?
> 24 h

###

Hi there, I'd appreciate the recorded % degradation of peptidomimetics in 24 h when incubated with simulated gastric fluid for every entry that follows.
MEASUREMENT DESCRIPTION: Stability in simulated gastric fluid
Type: in vitro ADME
RUN PARAMETERS: 2 μM peptidomimetic, simulated gastric fluid pH 1.5, 37° C., 24 h
Starred links: 1 amine or outer side, 2 acyl side, 3 side chain; linkers in the order of their positions; H or OH if unused. Non-standard residues stand in square brackets, D forms with d. Residues, ends and D or L forms follow the SMILES beside them. ξ: configuration not given here. Leu(5,5,5,5',5',5'-F6) = N[C@@H](CC(C(F)(F)F)C(F)(F)F)C(=O)O; ξBip(2'-Et-4'-OMe) = CCc1cc(OC)ccc1-c1ccc(CC(N)C(=O)O)cc1; X1 = O=C(C(CCCc1ccc(C(F)(F)F)cc1F)N[*:1])[*:2]; ξbishPhe(2-F) = NC(CCCc1ccccc1F)C(=O)O; ξαMePhe(2-F) = CC(N)(Cc1ccccc1F)C(=O)O; Aib = CC(C)(N)C(=O)O
Output should be the measured figure followed by the unit it is expressed in.

// worked examples, % degradation of peptidomimetics in 24 h when incubated with simulated gastric fluid included
COMPOUND	DATA VALUE
CCc1cc(OC)ccc1-c1ccc(CC(NC(=O)[C@H](CC(=O)O)NC(=O)[C@H](CO)NC(=O)[C@@H](NC(=O)C(C)(Cc2ccccc2F)NC(=O)[C@@H](NC(=O)CNC(=O)[C@H](CC(C(F)(F)F)C(F)(F)F)NC(=O)C(C)(C)NC(=O)[C@H](Cc2c[nH]cn2)NC(C)=O)[C@@H](C)O)[C@@H](C)O)C(=O)NC(CCCc2ccccc2F)C(N)=O)cc1 (some centres unmarked) [compound 212] (Ac-H[Aib][Leu(5,5,5,5',5',5'-F6)]GT[ξαMePhe(2-F)]TSD[ξBip(2'-Et-4'-OMe)][ξbishPhe(2-F)]-NH2)	100%
CCc1cc(OC)ccc1-c1ccc(CC(CNC(CCCc2ccccc2)C(N)=O)NC(=O)[C@H](CC(=O)O)NC(=O)[C@H](CO)NC(=O)[C@@H](NC(=O)C(C)(Cc2ccccc2F)NC(=O)[C@@H](NC(=O)CNC(=O)C(CCC#N)NC(=O)C(C)(C)NC(=O)[C@@H](N)Cc2c[nH]cn2)[C@H](C)O)[C@H](C)O)cc1 (single isomer, unassigned) [compound 190]	45%
CCc1cc(OC)ccc1-c1ccc(CC(C(=O)N(C)C(CCCc2ccccc2)C(N)=O)N(C)C(=O)[C@H](CC(=O)O)NC(=O)[C@H](CO)NC(=O)[C@@H](NC(=O)C(C)(Cc2ccccc2F)NC(=O)[C@@H](NC(=O)CNC(=O)C(CCC#N)NC(=O)C(C)(C)NC(=O)[C@@H](N)Cc2c[nH]cn2)[C@H](C)O)[C@H](C)O)cc1 (single isomer, unassigned) [compound 142]	13%
CCc1cc(OC)ccc1-c1ccc(CC(NC(=O)[C@H](CC(=O)O)NC(=O)[C@H](CO)NC(=O)[C@@H](NC(=O)[C@H](Cc2ccccc2)NC(=O)[C@@H](NC(=O)CNC(=O)[C@H](CCC(N)=O)NC(=O)C2(NC(=O)[C@@H](N)Cc3c[nH]cn3)CC2)[C@@H](C)O)[C@@H](C)O)C(=O)NC(CCCc2ccc(F)cc2C(F)(F)F)C(N)=O)cc1 (single isomer, unassigned) [compound 72]	15%

Item CCc1cc(OC)ccc1-c1ccc(CC(NC(=O)[C@H](CC(=O)O)NC(=O)[C@H](CO)NC(=O)[C@@H](NC(=O)[C@H](Cc2ccccc2)NC(=O)[C@@H](NC(=O)CNC(=O)[C@H](CCC(N)=O)NC(=O)C(C)(C)NC(=O)[C@@H](N)Cc2c[nH]cn2)[C@@H](C)O)[C@@H](C)O)C(=O)NC(CCCc2ccc(C(F)(F)F)cc2F)C(N)=O)cc1 (some centres unmarked) [compound 65] (H-H[Aib]QGTFTSD[ξBip(2'-Et-4'-OMe)][X1]-NH2) has what recorded % degradation of peptidomimetics in 24 h when incubated with simulated gastric fluid?
14%
